Exercise: for every item that follows, state its recorded TGI.
Tested on: HCT-116 colon
Experiment: NCI tumour cell line growth inhibition, 48 h
Kindly provide the numeric value in µM only, without the unit symbol.

Need TGI, item COc1cc(C=O)c(-c2cc3c(cc2C2(C)OCCS2)OCO3)c(OC)c1OC (stereo not given) 28.2

Need TGI, item Cc1cc(C)c2c(=N)c3ccccc3n(CCCCCCn3c4ccccc4c(=N)c4c(C)cc(C)nc43)c2n1 0.353

Need TGI, item Cn1c(/C=C(\C#N)c2cccc(C(F)(F)F)c2)nc2c(N3CCOCC3)nc(Cl)nc21 0.398

Need TGI, item COc1cc2c(cc1OC(=O)c1cc3ccccc3[nH]1)N=C[C@@H]1CCCN1C2=O 3.19

###

Test system: RPMI-8226 leukemia
Assay: NCI tumour cell line growth inhibition, 48 h
Where a SMILES comes first, the peptide text is derived from it. [ ]: non-standard residue; d: D form. The star is where a group is joined. ξ: configuration not given here. Propanoyl(3-(4-MeO-Ph)) = COc1ccc(CCC(=O)*)cc1; Thr(3ξ) = CC(O)[C@H](N)C(=O)O; dNMeL = CN[C@H](CC(C)C)C(=O)O; ξLac = CC(O)C(=O)O
measured attribute: TGI

Provide value of TGI for this record tested with RPMI-8226 leukemia: O=C(O)C1C(=O)Oc2c(cccc2[N+](=O)[O-])C1O (stereo not given) > 100 µM

Provide value of TGI for this record tested with RPMI-8226 leukemia: COC(=O)[C@@H](NC(=O)[C@@H](CC(C)C)N(C)C(=O)[C@@H]1CCCN1C(=O)C(C)O)C(C)OC(=O)CCc1ccc(OC)cc1 (stereo not given in full) (H-[ξLac]P[dNMeL][Thr(3ξ)](Propanoyl(3-(4-MeO-Ph)))-OMe) > 100 µM

Provide value of TGI for this record tested with RPMI-8226 leukemia: NC(=O)C[C@H](NC(=O)C1(NC(=O)[C@H](Cc2ccc(CP(=O)(O)O)cc2)NC(=O)C(=O)O)CCCCC1)C(=O)NCCCc1cccc2ccccc12 > 10 µM

Provide value of TGI for this record tested with RPMI-8226 leukemia: Cc1ccc(S(=O)(=O)C2c3nc4ccccc4cc3-c3nc4ccccc4nc32)cc1 (stereo not given) > 100 µM

Provide value of TGI for this record tested with RPMI-8226 leukemia: Cn1c(N=[N+]=[N-])cc(=O)n(C)c1=O > 100 µM

###

Tested on: MDA-MB-231 breast
Assay: NCI tumour cell line growth inhibition, 48 h
measured attribute: TGI

Need TGI, item NC(=O)C[C@H](NC(=O)C1(NC(=O)[C@H](Cc2ccc(CP(=O)(O)O)cc2)NC(=O)C(=O)O)CCCCC1)C(=O)NCCCc1cccc2ccccc12 > 10 µM

Need TGI, item CCOC(=O)c1cn(CC)c2cc3c(cc2c1=O)CCS3(=O)=O > 100 µM

Need TGI, item O=C(Nc1ccc2[nH]c(C(=O)N3CC(CCl)c4c3cc([N+](=O)[O-])c3ccccc43)cc2c1)c1cc2ccccc2o1 (stereo not drawn) > 1100 µM

Need TGI, item O=C(O)C1C(=O)Oc2c(cccc2[N+](=O)[O-])C1O (stereo not drawn) > 100 µM

Need TGI, item CNC(=O)c1ccccc1[S+]1c2cccc3cccc(c23)C(=O)N1C (stereo not drawn) > 100 µM

Need TGI, item Cc1nc2c(Cl)cc(Cl)cc2c(Cl)c1CCCl > 100 µM

Need TGI, item CCCC(=O)Nc1cc(/C=C/C(=O)N2CC(CCl)c3c2cc([N+](=O)[O-])c2ccccc32)n(C)c1 (stereo not drawn) > 100 µM

Need TGI, item C[C@]12CC[C@H](O)CC1=CC[C@@H]1[C@@H]2CC[C@]2(C)c3nc(Cl)ccc3C[C@@H]12 > 100 µM

Need TGI, item COc1ccc(SC2c3ccc(C)cc3Oc3nc(N)c(C#N)c(N)c32)cc1 (stereo not drawn) 3.28 µM

Need TGI, item N#CCOc1cccc(C2(N3CC=CCC3)CCCCC2)c1 > 100 µM

Need TGI, item COc1c2c(c(CC=C(C)C)c3oc(=O)c(-c4ccc(O)cc4)c(O)c13)OC(C)(C)C=C2 65 µM

Need TGI, item COc1ccc(-c2nnc(CCCCCCCCc3nnc(-c4ccc(OC)cc4)n3N)n2N)cc1 > 100 µM

Need TGI, item Cn1cc(-c2nc(-c3c[nH]c4ccncc34)cs2)c2cc(F)ccc21 3.1 µM

Need TGI, item COc1c(-c2cccs2)oc2c(CC(=O)O)cccc2c1=O > 100 µM

Need TGI, item NC(=O)c1ncn2c(=O)n(CCl)nnc12 > 100 µM

Need TGI, item Clc1ccc(C(c2ccc(Cl)cc2)N2CCNCC2)cc1 4.4 µM

Need TGI, item COc1cccc2c1-c1c(OC)cccc1SS2 56.1 µM

Need TGI, item COc1cc(/C=c2/c3ccccc3n3c2cc(-c2ccccc2)[n+]3C)cc(OC)c1OC 14.8 µM

Need TGI, item COP(=O)(OC)c1ccc(NCc2cc(O)ccc2O)cc1 > 57.8 µM

Need TGI, item O=C(O)c1ccc2c3c(ncnc13)-c1ccccc1C2=O > 100 µM

Need TGI, item C[C@@H](NC(=O)[C@@H](CC(=O)N1CCC(N2CCCCC2)CC1)N1C(=O)[C@@H](N2C(=O)OC[C@@H]2c2ccccc2)[C@H]1/C=C/c1cccc(Cl)c1)c1ccccc1 3.87 µM

Need TGI, item C=CCCC(On1c(-c2ccc(Cl)cc2)csc1=S)c1ccccc1 (stereo not drawn) > 100 µM

Need TGI, item S=c1nc2sc3c(c2c(Nc2ccc(Br)cc2)[nH]1)CCN(N1CCc2c(sc4nc(=S)[nH]c(Nc5ccc(Br)cc5)c24)C1)C3 > 50 µM

Need TGI, item C[C@]1(C(=O)O)N[C@H](C(=O)O)CS1 > 1000 µM

Need TGI, item COc1ccc([I+]c2ccccc2)cc1 > 100 µM

Need TGI, item CC(C)=CCCC1(Sc2ccccc2)C(=O)OCC1C=C(C)C (stereo not drawn) > 100 µM

Need TGI, item Cc1cc2c(cc1-c1cc3c(cc1C)C(C(C)C)=C(O)C(=O)/C3=C\Nc1c(C)n(C)n(-c3ccccc3)c1=O)/C(=C/Nc1c(C)n(C)n(-c3ccccc3)c1=O)C(=O)C(O)=C2C(C)C > 100 µM

Need TGI, item CCN(CC)CCCC(C)Nc1c2ccc(Cl)cc2nc2cc(OC)c(OC)cc12 (stereo not drawn) 3.97 µM

Need TGI, item Cc1c(O)c(=O)ccn1CCc1c[nH]c2ccccc12 6.47 µM

Need TGI, item Cc1ccc(C(=O)C2=CN=C3C(=O)N(c4ccccc4)N(C)C3(C)C2=N)cc1 (stereo not drawn) > 100 µM

Need TGI, item COc1cc(-c2csc(NC(=O)Nc3cc(C(F)(F)F)cc(C(F)(F)F)c3)n2)cc(OC)c1OC 3.92 µM

Need TGI, item COc1ccc(-c2cn(-c3cccc(C(=O)/C=C/c4ccc(O)c(OC)c4)c3)c(=O)[nH]2)cc1 > 54.3 µM

Need TGI, item CC(=O)OCc1ccc(O)c(C=O)c1 > 100 µM
